Biological target: T1, Recombinant MBP-mutCALR Type 1 fusion protein (human)
T1 construct: custom made at Cepter; also called recombinant mutCALR protein
Assay: SPR, IgG captured, 1:1 fit, Exp. 1
For each record, write down the corresponding Kd.
One number for each entry, in nM.

anti-mutCALR antibody clone 44 (antibody, human IgG1, lambda, V domains shown, human IgG1) VH: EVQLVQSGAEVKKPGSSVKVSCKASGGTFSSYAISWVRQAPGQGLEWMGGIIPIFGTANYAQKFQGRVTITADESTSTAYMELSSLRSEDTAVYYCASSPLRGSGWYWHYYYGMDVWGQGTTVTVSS VL: SYVLTQPPSVSAAPGKTARISCGGNNIRSKSVHWYQQKAGQAPVLVIYQDSKRPSGIPERFSGSNSGNTATLTISGTQAMDEADYYCQAWDSNTVVFGGGTKLTVLG : 3.84
anti-mutCALR antibody clone 20 (antibody, human IgG1, lambda, V domains shown, human IgG1) VH: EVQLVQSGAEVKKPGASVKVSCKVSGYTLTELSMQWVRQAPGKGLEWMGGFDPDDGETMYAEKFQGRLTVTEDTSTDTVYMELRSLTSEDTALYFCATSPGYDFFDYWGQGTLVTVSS VL: SYVLTQPPSVSVAPGKTARITCGGNNIGSKGVHWYQQKPGQAPVLVVYDDSDRPSGIPERFSGSNSGNTATLTINRVEAGDEADYYCQVWDSSNDLLIFGGGTKLTVLG : 4.46

Now examine the next entry.
Just so you know, measured Kd for anti-mutCALR antibody clone 34 (antibody, human IgG1, lambda, V domains shown, human IgG1) VH: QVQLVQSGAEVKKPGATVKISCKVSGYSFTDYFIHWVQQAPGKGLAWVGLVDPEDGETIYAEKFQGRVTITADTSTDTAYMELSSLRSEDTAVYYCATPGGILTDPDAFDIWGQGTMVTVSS VL: QSALTQPASVSGSPGQSITISCTGTSSDVGGYNYVSWYQQHPGKAPKLMIYEVSNRPSGVSNRFSGSKSGNTASLTISGLQAEDEADYYCSSYTSSSTYVFGTGTKVTVLG came out at 2.56

Values from patent US20230272055A1
